The measurements presented in this section are drawn from patent US20160009693A1.

Test system: Solanum nigrum (SOLNI)
Assay: Herbicidal glasshouse test, pre-emergence, SOLNI
Format: in vivo
Settings: applied at 1000 g/h, evaluated after 13 days
Here, each record is paired with measured PRE Application SOLNI, percentage damage (five point scale) data.
QUANTITY NAME: PRE Application SOLNI, percentage damage (five point scale)

{"COMPOUND": "Cn1nnnc1NC(=O)c1nn(C)c(=O)n(-c2ccc(F)cc2Cl)c1=O [Compound 1.021]", "RECORDED RESULT": "5 (5=80-100%)"}
{"COMPOUND": "Cn1cnnc1NC(=O)c1nn(C)c(=O)n(-c2cccc(F)c2F)c1=O [Compound 6.002]", "RECORDED RESULT": "5 (5=80-100%)"}
{"COMPOUND": "CC(C)CCn1nc(C(=O)Nc2nnnn2C)c(=O)n(-c2cccc(F)c2)c1=O [Compound 1.013]", "RECORDED RESULT": "3 (3=40-59%)"}
{"COMPOUND": "CC(C)Cn1c(=O)c(C(=O)Nc2nnnn2C)nn(C)c1=O [Compound 1.005]", "RECORDED RESULT": "5 (5=80-100%)"}
{"COMPOUND": "CCOc1cccc(-n2c(=O)c(C(=O)Nc3nnnn3C)nn(C)c2=O)c1 [Compound 1.034]", "RECORDED RESULT": "5 (5=80-100%)"}
